Values were extracted from paper PMC12295762.

Let's look at some binders and their measured pKd.
- Assayed Target: T1, ABH2 E175A (human, UniProt Q6NS38 1-261, E175A)
- T1 sequence: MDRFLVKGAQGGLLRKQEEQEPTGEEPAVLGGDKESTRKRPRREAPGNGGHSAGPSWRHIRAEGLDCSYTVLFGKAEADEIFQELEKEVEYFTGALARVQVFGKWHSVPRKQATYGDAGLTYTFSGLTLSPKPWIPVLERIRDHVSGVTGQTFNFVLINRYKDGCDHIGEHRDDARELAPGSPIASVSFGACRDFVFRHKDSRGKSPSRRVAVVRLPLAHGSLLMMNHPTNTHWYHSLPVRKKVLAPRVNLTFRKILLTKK
- Assay Method Text: EMSA; 0.5 mM αKG, 10 mM Mg2+, 2 mM ascorbate; 50 mM Tris-HCl pH 8.0, 50 mM KCl, 10 mM MgCl2, 0.5 mM αKG, 2 mM sodium ascorbate; 1.2 µM DNA, 0.4-12.8 µM protein; 10 min 37 °C then 5 min on ice; 10% native PAGE, 0.5x TBE, 4-8 °C; Hill fit
- Condition: protein: recombinant; tags: N-terminal His6; label: 5'-FAM on strand 1; blunt
# reply with the number alone; pKd is -log10 of concentration in mol/L

Query: # input binder: m3C dsDNA (dsDNA, N3-methylcytosine (m3C) at position 12 of strand 1) DNA 1: AGTTCAATGATCTTCAT DNA 2: ATGAAGATCATTGAACT ; wanted: its pKd
Result: 5.53

Query: # input binder: m1A dsDNA (dsDNA, N1-methyladenine (m1A) at position 10 of strand 1) DNA 1: AGTTCAATGATCTTCAT DNA 2: ATGAAGATCATTGAACT ; wanted: its pKd
Result: 5.61
